Parameter IC50: see the listing below.
Target: HLA-A03.01 (Homo sapiens, UniProt P04439)
Assay: Class I MHC peptide binding affinity (displacement of radiolabeled reference peptide)
Conditions: allele A03.01; read-out: Observed Affinity (IC50; (nM))
Where a SMILES comes first, the peptide text is derived from it.
Reply with just the number (in nM).

Known IC50 results, listed for orientation:
{"molecule": "CC(C)C[C@H](NC(=O)[C@@H](N)CO)C(=O)N[C@@H](CCC(N)=O)C(=O)N1CCC[C@H]1C(=O)N1CCC[C@H]1C(=O)N1CCC[C@H]1C(=O)N1CCC[C@H]1C(=O)NCC(=O)N[C@@H](Cc1ccccc1)C(=O)N[C@@H](CCCCN)C(=O)O (H-SLQPPPPGFK-OH; N-terminus and C-terminus assumed)", "target": "HLA-A03.01 (Homo sapiens, UniProt P04439)", "IC50 (nM)": 19}
{"molecule": "CC(C)[C@H](NC(=O)[C@@H](N)CCCNC(=N)N)C(=O)N[C@@H](CC(N)=O)C(=O)N[C@H](C(=O)N[C@@H](C)C(=O)N[C@@H](Cc1c[nH]c2ccccc12)C(=O)N[C@@H](CCCCN)C(=O)N[C@H](C(=O)N[C@@H](CCCCN)C(=O)N[C@@H](CCCCN)C(=O)O)[C@@H](C)O)[C@@H](C)O (H-RVNTAWKTKK-OH; N-terminus and C-terminus assumed)", "target": "HLA-A03.01 (Homo sapiens, UniProt P04439)", "IC50 (nM)": 2.3}

Which IC50 value belongs to CSCC[C@H](NC(=O)[C@@H](N)C(C)C)C(=O)N[C@@H](C)C(=O)NCC(=O)N[C@@H](CC(C)C)C(=O)NCC(=O)N[C@@H](CO)C(=O)N1CCC[C@H]1C(=O)N[C@@H](Cc1ccc(O)cc1)C(=O)N[C@H](C(=O)O)C(C)C (H-VMAGLGSPYV-OH; N-terminus and C-terminus assumed) ?
11200

* * *

Target: HLA-A02.01 (Homo sapiens, UniProt P04439, D140Y/D185E/D98H/E176V/E277Q/G131W/G231S/I119V/I121R/I166T/I218V/N151K/N90K/P208A/P217A/Q86G/Q94H/R138H/R169H)
Construct: made in house; host or cells: E. coli
Test: Class I MHC peptide binding stability (pMHC-I dissociation, 125I-labeled light chain)
Conditions: EGFR T790M peptides; HLA allele A02.01
Where a SMILES comes first, the peptide text is derived from it.
Overview of reported Stability (half-life (hr.)) across a group of molecules:
Return type: number; implicit unit min.

{"molecule": "CC[C@H](C)[C@H](N)C(=O)N[C@@H](CCSC)C(=O)N[C@@H](CCC(N)=O)C(=O)N[C@@H](CC(C)C)C(=O)N[C@@H](CCSC)C(=O)N1CCC[C@H]1C(=O)N[C@@H](Cc1ccccc1)C(=O)NCC(=O)N[C@@H](CS)C(=O)O (H-IMQLMPFGC-OH; N-terminus and C-terminus assumed)", "readout.units": "min", "Stability (half-life (hr.))": 22.21}
{"molecule": "CC[C@H](C)[C@H](N)C(=O)N[C@@H](CCSC)C(=O)N[C@@H](CCC(N)=O)C(=O)N[C@@H](CC(C)C)C(=O)N[C@@H](CCSC)C(=O)N1CCC[C@H]1C(=O)N[C@@H](Cc1ccccc1)C(=O)NCC(=O)N[C@@H](CS)C(=O)N[C@@H](CC(C)C)C(=O)O", "readout.units": "min", "Stability (half-life (hr.))": 30.94}
{"molecule": "CC[C@H](C)[C@H](NC(=O)[C@@H](N)CC(C)C)C(=O)N[C@@H](CCSC)C(=O)N[C@@H](CCC(N)=O)C(=O)N[C@@H](CC(C)C)C(=O)N[C@@H](CCSC)C(=O)N1CCC[C@H]1C(=O)N[C@@H](Cc1ccccc1)C(=O)NCC(=O)N[C@@H](CS)C(=O)O", "readout.units": "min", "Stability (half-life (hr.))": 22.88}
{"molecule": "CSCC[C@H](NC(=O)[C@H](CC(C)C)NC(=O)[C@H](CCC(N)=O)NC(=O)[C@@H](N)CCSC)C(=O)N1CCC[C@H]1C(=O)N[C@@H](Cc1ccccc1)C(=O)NCC(=O)N[C@@H](CS)C(=O)N[C@@H](CC(C)C)C(=O)O", "readout.units": "min", "Stability (half-life (hr.))": 22.1}
{"molecule": "CSCC[C@H](NC(=O)[C@H](CC(C)C)NC(=O)[C@H](CCC(N)=O)NC(=O)[C@@H](N)CCSC)C(=O)N1CCC[C@H]1C(=O)N[C@@H](Cc1ccccc1)C(=O)NCC(=O)N[C@@H](CS)C(=O)N[C@@H](CC(C)C)C(=O)N[C@@H](CC(C)C)C(=O)O", "readout.units": "min", "Stability (half-life (hr.))": 22.87}

Proceed to the following item.
Which Stability (half-life (hr.)) value is on record for CC[C@H](C)[C@H](NC(=O)[C@H](CC(C)C)NC(=O)[C@@H](N)CCC(N)=O)C(=O)N[C@@H](CCSC)C(=O)N[C@@H](CCC(N)=O)C(=O)N[C@@H](CC(C)C)C(=O)N[C@@H](CCSC)C(=O)N1CCC[C@H]1C(=O)N[C@@H](Cc1ccccc1)C(=O)O ?
20.44
